FYI, the data here is from patent US7109193B2.

Below, each entry is listed alongside its reported inhibition at 0.1 µM.
Molecular target: human oxytocin receptor (Homo sapiens, UniProt P30559)
Construct: host or cells: CHO cells (pcDNA3.1 vector)
Test: Oxytocin binding in Chinese Hamster Ovary cell membranes expressing human oxytocin receptors
Conditions: 100 nM, CHO cell membranes, [3H]oxytocin, values without parentheses, read-out: OT % inhibition @ 100% nM
Quantity Measured: inhibition at 0.1 µM (%)

{"columns": ["Compound", "Quantitative Result"],
 "data": [
  ["CCOc1ccccc1-c1cc(OC)c(C(=O)N2Cc3cccn3Cc3ccccc32)cc1Cl", 28],
  ["COc1cc(C(=O)N2Cc3ccc(C(=O)N(C)C4CCN(C)C4)n3Cc3ccccc32)ccc1-c1ccccc1C (stereo not drawn)", 99],
  ["COc1cc(C(=O)N2Cc3ccc(C(=O)N4CCN(CCCN(C)C)CC4)n3Cc3ccccc32)ccc1-c1cccc2ccccc12", 71],
  ["COc1ccccc1-c1ccc(C(=O)N2Cc3ccc(C(=O)N[C@@H]4CN5CCC4CC5)n3Cc3ccccc32)cc1C", 79],
  ["COc1ccccc1-c1ccc(C(=O)N2Cc3ccc(C(=O)n4ccnc4)n3Cc3ccccc32)cc1OC", 53],
  ["COc1cc(-c2ccccc2C)c(Cl)cc1C(=O)N1Cc2ccc(C(=O)N[C@@H]3CN4CCC3CC4)n2Cc2ccccc21", 73]
]}

----------
Target: human vasopressin V2 receptor subtype (Homo sapiens, UniProt P30518)
Construct: host or cells: CHO cells (pZeoSV vector)
Sequence (P30518 whole entry): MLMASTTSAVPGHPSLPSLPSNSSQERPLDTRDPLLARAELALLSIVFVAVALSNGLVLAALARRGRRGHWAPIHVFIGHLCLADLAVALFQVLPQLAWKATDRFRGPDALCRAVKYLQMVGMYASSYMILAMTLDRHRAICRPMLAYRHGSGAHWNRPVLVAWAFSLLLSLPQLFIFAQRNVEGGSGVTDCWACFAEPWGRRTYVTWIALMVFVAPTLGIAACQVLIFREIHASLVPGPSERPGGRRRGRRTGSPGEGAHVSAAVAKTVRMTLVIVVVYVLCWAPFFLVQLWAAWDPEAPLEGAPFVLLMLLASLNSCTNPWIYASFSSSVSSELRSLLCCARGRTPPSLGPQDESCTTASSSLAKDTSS
Test: Vasopressin binding in Chinese Hamster Ovary cell membranes expressing human vasopressin V2 subtype receptors
Settings: 100 nM, CHO cell membranes, [3H]arginine vasopressin, values without parentheses
Quantity Measured: inhibition at 0.1 µM

{"columns": ["Molecule", "Quantity Measured", "Result"],
 "data": [
  ["COc1cc(C(=O)N2Cc3ccc(C(=O)N4CCN(CCN(C)C)CC4)n3Cc3ccccc32)ccc1-c1cccc2ccccc12", "inhibition at 0.1 µM", "28%"],
  ["COc1ccccc1-c1ccc(C(=O)N2Cc3ccc(C(=O)N4CCN(C)CC4)n3Cc3ccccc32)cc1C", "inhibition at 0.1 µM", "27%"],
  ["COc1cccc(-c2ccc(C(=O)N3Cc4ccc(C(=O)N(C)CCN(C)C)n4Cc4ccccc43)cc2C)c1", "inhibition at 0.1 µM", "13%"],
  ["COc1ccccc1-c1ccc(C(=O)N2Cc3ccc(C(=O)NCCN4CCCCC4)n3Cc3ccccc32)cc1OC", "inhibition at 0.1 µM", "19%"],
  ["C=CCN1CCN(C(=O)c2ccc3n2Cc2ccccc2N(C(=O)c2ccc(-c4ccccc4OC)c(C)c2)C3)CC1", "inhibition at 0.1 µM", "1%"],
  ["COc1cc(C(=O)N2Cc3ccc(C(=O)N4CCN(CCN5CCOCC5)CC4)n3Cc3ccccc32)ccc1-n1c(C)ccc1C", "inhibition at 0.1 µM", "15%"],
  ["COc1cccc(-c2cc(OC)c(C(=O)N3Cc4ccc(C(=O)N(C)C5CCN(C)C5)n4Cc4ccccc43)cc2Cl)c1 (stereo not shown)", "inhibition at 0.1 µM", "17%"]
]}

----------
Target: human oxytocin receptor (Homo sapiens, UniProt P30559)
Construct: host or cells: CHO cells (pcDNA3.1 vector)
Sequence (P30559 1-389): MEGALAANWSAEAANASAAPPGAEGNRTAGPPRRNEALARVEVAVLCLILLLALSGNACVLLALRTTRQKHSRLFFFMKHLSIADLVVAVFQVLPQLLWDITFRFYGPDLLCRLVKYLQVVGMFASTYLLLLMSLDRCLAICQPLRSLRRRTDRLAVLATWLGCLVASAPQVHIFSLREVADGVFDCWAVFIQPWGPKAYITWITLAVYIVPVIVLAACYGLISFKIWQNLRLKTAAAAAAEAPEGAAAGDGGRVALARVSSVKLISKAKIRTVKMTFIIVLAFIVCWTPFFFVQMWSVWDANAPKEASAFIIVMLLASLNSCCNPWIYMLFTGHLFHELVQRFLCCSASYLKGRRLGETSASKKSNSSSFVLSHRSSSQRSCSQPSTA
Assay: Oxytocin binding in Chinese Hamster Ovary cell membranes expressing human oxytocin receptors
Conditions: 100 nM, CHO cell membranes, [3H]oxytocin, values without parentheses

{"columns": ["Structure Smiles String", "OT % inhibition @ 100% nM"],
 "data": [
  ["COc1cccc(-c2ccc(C(=O)N3Cc4ccc(C(=O)N5CC[C@@H](N(C)C)C5)n4Cc4ccccc43)cc2OC)c1", "91%"],
  ["COc1cc(C(=O)N2Cc3ccc(C(=O)N4CC[C@@H](N(C)C)C4)n3Cc3ccccc32)ccc1-n1c(C)ccc1C", "66%"],
  ["COc1cc(C(=O)N2Cc3ccc(C(=O)N4CCC[C@H]4CN4CCCC4)n3Cc3ccccc32)ccc1-c1ccccc1Cl", "101%"],
  ["COc1cc2c(cc1OC)N(C(=O)c1ccc(-c3ccccc3C(F)(F)F)c(C)c1)Cc1ccc(C(=O)N(C)CCCN(C)C)n1C2.Cl", "33%"],
  ["COc1cc2c(cc1OC)N(C(=O)c1ccc(-c3ccccc3C(F)(F)F)c(C)c1)Cc1ccc(C(=O)N3CCC(=O)CC3)n1C2", "9%"],
  ["COc1ccccc1-c1ccc(C(=O)N2Cc3ccc(C(=O)N4CCC[C@H]4CN4CCCC4)n3Cc3ccccc32)cc1C", "97%"],
  ["COc1cc(C(=O)N2Cc3ccc(C(=O)N(C)CCCN(C)C)n3Cc3ccccc32)ccc1-n1c(C)ccc1C", "58%"]
]}

----------
Below, each entry is listed alongside its reported inhibition at 0.1 µM.
Molecular target: human vasopressin V1a receptor subtype (Homo sapiens, UniProt P37288)
Construct: host or cells: CHO cells (pZeoSV vector for the Thibonnier line)
Sequence (P37288 whole entry): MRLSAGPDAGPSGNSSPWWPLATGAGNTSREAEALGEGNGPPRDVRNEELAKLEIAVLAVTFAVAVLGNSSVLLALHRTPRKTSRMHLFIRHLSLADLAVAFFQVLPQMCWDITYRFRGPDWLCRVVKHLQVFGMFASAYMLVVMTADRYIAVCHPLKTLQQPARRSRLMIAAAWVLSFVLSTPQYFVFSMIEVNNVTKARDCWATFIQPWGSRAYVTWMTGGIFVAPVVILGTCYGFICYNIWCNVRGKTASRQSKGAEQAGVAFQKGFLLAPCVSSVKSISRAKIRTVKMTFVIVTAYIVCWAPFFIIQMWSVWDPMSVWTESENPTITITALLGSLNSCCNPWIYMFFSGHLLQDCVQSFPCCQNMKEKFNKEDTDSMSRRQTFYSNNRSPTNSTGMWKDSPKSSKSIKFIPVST
Experiment: Vasopressin binding in Chinese Hamster Ovary cell membranes expressing human vasopressin V1a subtype receptors
Conditions: 100 nM, CHO cell membranes, [3H]Manning ligand, values without parentheses

{"columns": ["Compound", "Target Under Test", "inhibition at 0.1 µM [%]"],
 "data": [
  ["COc1cc(C(=O)N2Cc3ccc(C(=O)N4CCN(C)CC4)n3Cc3ccccc32)ccc1-c1cccc2ccccc12", "human vasopressin V1a receptor subtype (Homo sapiens, UniProt P37288)", 4],
  ["Cc1cc(C(=O)N2Cc3cccn3Cc3ccccc32)cc(C)c1-n1c(C)ccc1C", "human vasopressin V1a receptor subtype (Homo sapiens, UniProt P37288)", 8],
  ["Cc1cc(C(=O)N2Cc3ccc(C(=O)n4ccnc4)n3Cc3ccccc32)ccc1-c1ccccc1C(F)(F)F", "human vasopressin V1a receptor subtype (Homo sapiens, UniProt P37288)", -3],
  ["COc1cc(C(=O)N2Cc3ccc(C(=O)n4ccnc4)n3Cc3ccccc32)ccc1-c1ccccc1C", "human vasopressin V1a receptor subtype (Homo sapiens, UniProt P37288)", 47],
  ["COc1cccc(-c2ccc(C(=O)N3Cc4ccc(C(=O)NCCC5CCCN5C)n4Cc4ccccc43)cc2OC)c1 (stereo not shown)", "human vasopressin V1a receptor subtype (Homo sapiens, UniProt P37288)", 43],
  ["COc1ccccc1-c1ccc(C(=O)N2Cc3ccc(C(=O)NCCN4CCCCC4)n3Cc3ccccc32)cc1OC", "human vasopressin V1a receptor subtype (Homo sapiens, UniProt P37288)", 16],
  ["COc1cc(C(=O)N2Cc3ccc(C(=O)N4CCN(CCCN(C)C)CC4)n3Cc3ccccc32)ccc1-c1ccccc1C", "human vasopressin V1a receptor subtype (Homo sapiens, UniProt P37288)", 53]
]}

----------
Molecular target: human oxytocin receptor (Homo sapiens, UniProt P30559)
Construct: host or cells: CHO cells (pcDNA3.1 vector)
Experiment: Oxytocin binding in Chinese Hamster Ovary cell membranes expressing human oxytocin receptors
Details: 100 nM, CHO cell membranes, [3H]oxytocin, values without parentheses, read-out: OT % inhibition @ 100% nM
Below, each entry is listed alongside its reported inhibition at 0.1 µM.

{"columns": ["Structure Smiles String", "inhibition at 0.1 µM, %"],
 "data": [
  ["COc1ccccc1-c1ccc(C(=O)N2Cc3ccc(C(=O)NCCCn4ccnc4)n3Cc3ccccc32)cc1C", 47],
  ["COc1cccc(-c2cc(OC)c(C(=O)N3Cc4ccc(C(=O)NCCCN(C)C)n4Cc4ccccc43)cc2Cl)c1", 35],
  ["C=CCN1CCN(C(=O)c2ccc3n2Cc2ccccc2N(C(=O)c2cc(Cl)c(-c4cccc(OC)c4)cc2OC)C3)CC1", 71],
  ["COc1ccccc1-c1ccc(C(=O)N2Cc3ccc(C(=O)N4CCN(C(C)C)CC4)n3Cc3ccccc32)cc1C", 81]
]}

----------
Target: human oxytocin receptor (Homo sapiens, UniProt P30559)
Construct: host or cells: CHO cells (pcDNA3.1 vector)
Assay: Oxytocin binding in Chinese Hamster Ovary cell membranes expressing human oxytocin receptors
Details: 100 nM, CHO cell membranes, [3H]oxytocin, values without parentheses, read-out: OT % inhibition @ 100% nM

{"columns": ["Structure Smiles String", "inhibition at 0.1 µM [%]"],
 "data": [
  ["COc1cc(C(=O)N2Cc3ccc(C(=O)N(C)C4CCN(C)CC4)n3Cc3ccccc32)ccc1-c1ccccc1C", 93],
  ["COc1ccccc1-c1ccc(C(=O)N2Cc3ccc(C(=O)N4CCN(C(C)C)CC4)n3Cc3ccccc32)cc1", 82],
  ["COc1cccc(-c2ccc(C(=O)N3Cc4ccc(C(=O)N(C)C5CCN(C)CC5)n4Cc4ccccc43)cc2C)c1", 88],
  ["Cc1ccccc1-c1ccc(C(=O)N2Cc3ccc(C(=O)N4CCCN(C)CC4)n3Cc3ccccc32)cc1", 68]
]}
